# TEST PROTOCOL: PP-LFER solute descriptor determination from GC retention and partition coefficient data
# Assay type: physicochemical
# CONDITION DETAILS: 25 °C; updated in the iterative calculation
// reported Solute descriptor L (logarithmic hexadecane/air partition coefficient, KHxd/air) for each item listed
MEASURED QUANTITY: Solute descriptor L (logarithmic hexadecane/air partition coefficient, KHxd/air)

>>> readout_value("C=CCOC(F)(C(F)(F)F)C(F)(F)F")
1.717
>>> readout_value("FC(F)(F)C(F)(F)C(F)(F)C(F)(F)N(C(F)(F)C(F)(F)C(F)(F)C(F)(F)F)C(F)(F)C(F)(F)C(F)(F)C(F)(F)F")
2.302
>>> readout_value("O=S(=O)(F)C(F)(F)C(F)(F)C(F)(F)C(F)(F)F [PFBSF, Perfluorobutanesulfonyl fluoride]")
1.278
>>> readout_value("CCN(CCO)S(=O)(=O)C(F)(F)C(F)(F)C(F)(F)C(F)(F)C(F)(F)C(F)(F)F")
5.685
>>> readout_value("C=CC(F)(F)C(F)(F)C(F)(F)C(F)(F)C(F)(F)C(F)(F)C(F)(F)C(F)(F)F")
2.504
